log10 EC50 reference
- System: HIV-IIIb IN T174I DE
- assay notes: Antiviral assay in MT4 cells, HIV-IIIb IN T174I DE virus (from dose escalation passaging)
- Format: cell-based, HIV-1
- cond: Human immunodeficiency virus 1, IIIB, MT4, 120 h, read-out: T174I DE EC50, MT4 cells, HIV-IIIb IN T174I DE (dose escalation), 5 days, CellTiter-Glo
parameter measured: log10 EC50 (log10 of the value in µM)

>>> df
                                    compound           test_system  parameter_measured  observed_value
 0  Cc1cc2nc(-c3ccc4c(c3)c(N3CC5CC(C3)N5C)nn4C)sc2c(-c2ccc(Cl)cc2)c1[C@H](OC(C)(C)C)C(=O)O  HIV-IIIb IN T174I DE          log10 EC50            1.76
 1  Cc1cc2nc(-c3ccc4c(n3)c(C3CCN(C5CN(C)C5)CC3)nn4C)sc2c(-c2ccc(Cl)cc2)c1[C@H](OC(C)(C)C)C(=O)O  HIV-IIIb IN T174I DE          log10 EC50           -0.66
 2  CC(=O)N1CC[C@H](N2CCC(c3nn(C)c4ccc(-c5nc6cc(C)c([C@H](OC(C)(C)C)C(=O)O)c(-c7ccc(Cl)cc7)c6s5)nc34)CC2)C1  HIV-IIIb IN T174I DE          log10 EC50           -0.95
 3  COC(=O)N1CC(N2CCC(c3nn(C)c4ccc(-c5nc6cc(C)c([C@H](OC(C)(C)C)C(=O)O)c(-c7ccc(Cl)cc7)c6s5)nc34)CC2)C1  HIV-IIIb IN T174I DE          log10 EC50           -0.86
 4  Cc1cc2nc(-c3ccc4c(c3)c(C3CCN(C5CCC5)C3)nn4C)sc2c(-c2ccc(Cl)cc2)c1[C@H](OC(C)(C)C)C(=O)O (stereo partly drawn)  HIV-IIIb IN T174I DE          log10 EC50            0.35
 5  Cc1cc2nc(-c3ccc4c(n3)c(N3CCN([C@H]5C[C@@H](O)C5)CC3)nn4C)sc2c(-c2ccc(Cl)cc2)c1[C@H](OC(C)(C)C)C(=O)O  HIV-IIIb IN T174I DE          log10 EC50            0.43
 6  CCOCCN1CCN(c2nn(C)c3ccc(-c4nc5cc(C)c([C@H](OC(C)(C)C)C(=O)O)c(-c6ccc(Cl)cc6)c5s4)cc23)CC1  HIV-IIIb IN T174I DE          log10 EC50           -0.12
 7  Cc1cc2nc(-c3ccc4c(c3)c(C3=CCOC3)nn4C)sc2c(-c2ccc(Cl)cc2)c1[C@H](OC(C)(C)C)C(=O)O  HIV-IIIb IN T174I DE          log10 EC50            0.56
 8  COCCN1CC(c2nn(C)c3ccc(-c4nc5cc(C)c([C@H](OC(C)(C)C)C(=O)O)c(-c6ccc(Cl)cc6)c5s4)cc23)C1  HIV-IIIb IN T174I DE          log10 EC50            0.32
 9  Cc1cc2nc(-c3ccc4c(c3)c(C3CCN(C5COC5)CC3)nn4C)sc2c(-c2ccc(Cl)cc2)c1[C@H](OC1CC1)C(=O)O  HIV-IIIb IN T174I DE          log10 EC50           -0.97
10  Cc1cc2nc(-c3ccc4c(c3)c(N3CCN(C)CC3)nn4C)sc2c(-c2ccc(Cl)cc2)c1[C@H](OC1CC1)C(=O)O  HIV-IIIb IN T174I DE          log10 EC50           -0.44
11  CC(=O)N1CC(N2CCC(c3nn(C)c4ccc(-c5nc6cc(C)c([C@H](OC(C)(C)C)C(=O)O)c(-c7ccc(Cl)cc7)c6s5)nc34)CC2)C1  HIV-IIIb IN T174I DE          log10 EC50           -1.18
